Cited source for all entries: PubChem BioAssay (NCATS)

experiment: P-glycoprotein substrates identified in KB-3-1 adenocarcinoma cell line, qHTS therapeutic library screen (AID 1346986); settings: KB-3-1 parental cells viability, CellTiter-Glo, 72 h; series mostly up to 44.5 µM; also: nearly all actives have a fitted effect of over 60% in size
Inconclusive results are not listed. Activity calls are given as the source filed them. Calls follow the shape of the dose curve; as a rule, active = well fitted inhibition curve with a large enough effect; inconclusive = small, poorly fitted or top-dose-only effect; inactive = no such curve, though single readings can be large or run the other way.
OBSERVED_PROPERTY: outcome

1) C[C@@H]1O[C@@H](O[C@H]2[C@H](Oc3cc(O)c(C(=O)CCc4ccc(O)cc4)c(O)c3)O[C@H](CO)[C@@H](O)[C@@H]2O)[C@H](O)[C@H](O)[C@H]1O | inactive
2) CCc1nn(CCO)c(CC)c1Oc1cc(C#N)cc(C#N)c1 | inactive
3) C[C@]1(C2CCCC2)Cc2cc(OCC(=O)O)c(Cl)c(Cl)c2C1=O | inactive
4) COc1cc(C2CC(=O)Nc3c2cc(Br)c2ccccc32)cc(OC)c1OC (stereo unspecified) | inactive
5) Cc1ncc([N+](=O)[O-])n1C[C@H](O)CN1CCOCC1 | inactive
6) Cc1cccc(-c2nn3c(c2-c2ccnc4ccc(C(N)=O)cc24)CCC3)n1 | inactive
7) CC(=O)NC(Cc1c[nH]c2ccccc(=O)c12)C(=O)O (stereo unspecified) | inactive
8) COc1ccc(/C=C/C(N)=O)cc1OC | inactive
9) CN1CCN(C2=Nc3ccccc3Nc3ccc(O)cc32)CC1 | inactive
10) O=C(O)/C=C/c1ccc(O[C@@H]2O[C@H](CO)[C@@H](O)[C@H](O)[C@H]2O)cc1 | inactive
11) C=C1CC[C@H]2[C@@](C)(CCC(O)[C@@]2(C)CO)[C@@H]1/C=C/C(=C\C(=O)O)C(=O)O (stereo partly specified) | inactive
12) NC(=O)[C@H](Cc1ccccc1)NC(=O)[C@H](CCCN=C(N)N)NC(=O)C12CC3CC(CC(C3)C1)C2 | inactive [at 9.29 µM]
13) CC(O)C1NC(=O)C2CCCN2C1=O (stereo unspecified) | inactive
14) C[C@@H]1O[C@@H](O[C@H]2[C@H](O)[C@@H](O)[C@H](OC[C@H]3O[C@@H](OC(=O)[C@]45CCC(C)(C)C[C@H]4C4=CCC6[C@@]7(C)C[C@@H](O)[C@H](O)[C@@](C)(CO)C7[C@H](O)C[C@@]6(C)[C@]4(C)CC5)[C@H](O)[C@@H](O)[C@@H]3O)O[C@@H]2CO)[C@H](O)[C@H](O)[C@H]1O (stereo partly specified) | inactive [at 9.29 µM]
15) COC(=O)C1=CO[C@@H](O[C@@H]2O[C@H](CO)[C@@H](O)[C@H](O)[C@H]2O)[C@H]2[C@@H]1[C@H](O)C[C@]2(C)O | inactive

====

system: NIH3T3; test: qHTS assay to identify novel small-molecules to repurpose for Merkel cell carcinoma treatment (AID 1296009); conditions: MCC and control cell lines, CellTiter-Glo viability, 72 h; at 44.8 µM (top of the series) unless noted; also: nearly all actives have a fitted effect of over 60% in size
Inconclusive results are not listed. Active and inactive are the calls of the source. Calls follow the shape of the dose curve; as a rule, active = well fitted inhibition curve with a large enough effect; inconclusive = small, poorly fitted or top-dose-only effect; inactive = flat fitted curve, though single readings scatter.
OBSERVED_PROPERTY: outcome

1) CC1=CC(=O)C2C(C)(C)CCC[C@]2(C)[C@H]1CC[C@H](C)CC(=O)O (some centres not stated) | inactive
2) OC[C@H]1O[C@@H](OCCc2ccccc2)[C@H](O[C@@H]2OC[C@@H](O)[C@H](O)[C@H]2O)[C@@H](O)[C@@H]1O | inactive [at 17.4 µM]
3) COc1cc(O)c2c(c1Cl)CC(C)OC2=O (configuration not stated) | inactive
4) CC1=C2C(=O)C=C(CO[C@@H]3O[C@H](CO)[C@@H](O)[C@H](O)[C@H]3O)[C@@H]2[C@H]2OC(=O)[C@H](C)[C@@H]2[C@@H](O)C1 | inactive [at 17.4 µM]
5) O=C1C(Cl)=C(N2CCOCC2)C(=O)N1c1ccc(Cl)c(Cl)c1 | inactive [at 17.4 µM]
6) C/C=C(\C)C(=O)OCC1OC(OCC2OC(OC3(CO)OC(CO)C(O)C3O)C(O)C(O)C2O)C(O)C(O)C1O (configuration not stated) | inactive [at 17.4 µM]
